Values were extracted from paper doi:10.1101/2022.02.09.479835v1.

- SYSTEM NAME: 3CL-Pro (Severe acute respiratory syndrome coronavirus 2, UniProt P0DTD1)
READOUT NAME: pIC50
Note on units: pIC50 is unitless, being -log10 of a concentration expressed in mol/L.

Incoming: So what pIC50 did C[C@H](NC(=O)[C@H](Cc1ccccc1)NC(=O)OCc1ccccc1)C(=O)CF [Z-FA-FMK] get with 3CL-Pro (Severe acute respiratory syndrome coronavirus 2, UniProt P0DTD1)?
Outgoing: 5.01
